Target: PIK3CA E542K/PIK3R1 (p110 alpha/p85 alpha) (Homo sapiens, UniProt P42336, E542K)
Construct: purchased Invitrogen (SelectScreen service)
Sequence (P42336 whole entry E542K, one chain of several): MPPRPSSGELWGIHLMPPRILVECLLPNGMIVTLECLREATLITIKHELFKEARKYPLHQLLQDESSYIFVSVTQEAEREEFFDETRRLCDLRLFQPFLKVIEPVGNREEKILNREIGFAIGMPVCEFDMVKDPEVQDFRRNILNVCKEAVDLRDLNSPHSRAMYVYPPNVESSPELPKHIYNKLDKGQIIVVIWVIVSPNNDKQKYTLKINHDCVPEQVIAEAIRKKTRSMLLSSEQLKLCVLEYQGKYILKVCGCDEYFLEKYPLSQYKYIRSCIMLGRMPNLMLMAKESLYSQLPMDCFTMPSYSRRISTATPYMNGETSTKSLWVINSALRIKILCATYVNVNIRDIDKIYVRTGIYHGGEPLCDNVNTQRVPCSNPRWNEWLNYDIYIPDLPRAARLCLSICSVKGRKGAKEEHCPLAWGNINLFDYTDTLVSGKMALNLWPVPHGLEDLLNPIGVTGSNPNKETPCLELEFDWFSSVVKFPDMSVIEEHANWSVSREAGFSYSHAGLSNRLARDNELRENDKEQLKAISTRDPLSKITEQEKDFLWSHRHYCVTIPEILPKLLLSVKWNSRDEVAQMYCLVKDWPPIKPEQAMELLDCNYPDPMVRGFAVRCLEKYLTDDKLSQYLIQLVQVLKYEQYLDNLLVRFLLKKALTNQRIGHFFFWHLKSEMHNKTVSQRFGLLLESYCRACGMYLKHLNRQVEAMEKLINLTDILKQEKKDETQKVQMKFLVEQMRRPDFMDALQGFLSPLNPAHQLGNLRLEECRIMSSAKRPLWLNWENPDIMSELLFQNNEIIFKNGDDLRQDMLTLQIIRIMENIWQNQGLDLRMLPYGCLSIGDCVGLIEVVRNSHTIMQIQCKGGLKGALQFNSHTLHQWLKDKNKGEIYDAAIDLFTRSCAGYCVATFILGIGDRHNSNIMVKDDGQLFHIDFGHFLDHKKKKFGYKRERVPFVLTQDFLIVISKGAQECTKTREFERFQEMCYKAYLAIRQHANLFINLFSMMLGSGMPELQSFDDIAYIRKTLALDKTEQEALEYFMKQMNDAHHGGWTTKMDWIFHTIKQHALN
Assay: SelectScreen biochemical kinase activity assay
pIC50: −log10 of the molar value.
OBSERVATION_TYPE: pIC50

INSERT INTO results (record_smiles, test_system, quantitative_readout) VALUES
  ('COc1ccc(-c2oc3cc(OC)c(OC)c(O)c3c(=O)c2OC)cc1O', 'PIK3CA E542K/PIK3R1 (p110 alpha/p85 alpha) (Homo sapiens, UniProt P42336, E542K)', 6.51);

###

Target: PIK3CA ( p110 alpha/p85 alpha ) (Homo sapiens, UniProt P42336)
Sequence (P42336 whole entry): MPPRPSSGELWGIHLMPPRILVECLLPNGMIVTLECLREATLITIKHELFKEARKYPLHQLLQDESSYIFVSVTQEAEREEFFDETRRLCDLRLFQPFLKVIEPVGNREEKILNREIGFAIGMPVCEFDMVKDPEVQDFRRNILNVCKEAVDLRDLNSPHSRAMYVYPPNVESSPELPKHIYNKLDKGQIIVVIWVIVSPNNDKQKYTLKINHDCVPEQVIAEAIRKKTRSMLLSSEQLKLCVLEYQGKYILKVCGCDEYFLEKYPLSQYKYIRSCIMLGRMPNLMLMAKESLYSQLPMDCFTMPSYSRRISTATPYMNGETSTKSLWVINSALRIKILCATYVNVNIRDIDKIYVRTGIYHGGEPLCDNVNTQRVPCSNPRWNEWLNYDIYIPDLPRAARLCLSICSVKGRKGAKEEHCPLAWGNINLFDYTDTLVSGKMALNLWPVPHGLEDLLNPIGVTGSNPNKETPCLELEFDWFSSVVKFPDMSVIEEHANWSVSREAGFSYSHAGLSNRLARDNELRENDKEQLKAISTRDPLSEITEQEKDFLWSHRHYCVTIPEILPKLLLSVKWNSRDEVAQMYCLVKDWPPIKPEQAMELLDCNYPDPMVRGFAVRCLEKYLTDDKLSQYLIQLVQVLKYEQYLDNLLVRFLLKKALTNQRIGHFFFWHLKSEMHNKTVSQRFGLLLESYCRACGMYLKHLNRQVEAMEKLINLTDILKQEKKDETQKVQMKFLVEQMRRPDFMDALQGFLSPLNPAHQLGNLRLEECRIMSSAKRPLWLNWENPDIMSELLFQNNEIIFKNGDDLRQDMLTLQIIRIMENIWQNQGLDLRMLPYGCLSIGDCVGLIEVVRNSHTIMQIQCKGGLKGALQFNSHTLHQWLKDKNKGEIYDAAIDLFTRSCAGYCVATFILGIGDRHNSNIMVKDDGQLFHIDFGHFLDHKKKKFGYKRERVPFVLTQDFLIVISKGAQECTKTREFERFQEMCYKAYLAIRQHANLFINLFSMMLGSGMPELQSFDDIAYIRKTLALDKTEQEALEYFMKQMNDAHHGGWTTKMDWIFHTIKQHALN
Sequence (P27986 whole entry partner): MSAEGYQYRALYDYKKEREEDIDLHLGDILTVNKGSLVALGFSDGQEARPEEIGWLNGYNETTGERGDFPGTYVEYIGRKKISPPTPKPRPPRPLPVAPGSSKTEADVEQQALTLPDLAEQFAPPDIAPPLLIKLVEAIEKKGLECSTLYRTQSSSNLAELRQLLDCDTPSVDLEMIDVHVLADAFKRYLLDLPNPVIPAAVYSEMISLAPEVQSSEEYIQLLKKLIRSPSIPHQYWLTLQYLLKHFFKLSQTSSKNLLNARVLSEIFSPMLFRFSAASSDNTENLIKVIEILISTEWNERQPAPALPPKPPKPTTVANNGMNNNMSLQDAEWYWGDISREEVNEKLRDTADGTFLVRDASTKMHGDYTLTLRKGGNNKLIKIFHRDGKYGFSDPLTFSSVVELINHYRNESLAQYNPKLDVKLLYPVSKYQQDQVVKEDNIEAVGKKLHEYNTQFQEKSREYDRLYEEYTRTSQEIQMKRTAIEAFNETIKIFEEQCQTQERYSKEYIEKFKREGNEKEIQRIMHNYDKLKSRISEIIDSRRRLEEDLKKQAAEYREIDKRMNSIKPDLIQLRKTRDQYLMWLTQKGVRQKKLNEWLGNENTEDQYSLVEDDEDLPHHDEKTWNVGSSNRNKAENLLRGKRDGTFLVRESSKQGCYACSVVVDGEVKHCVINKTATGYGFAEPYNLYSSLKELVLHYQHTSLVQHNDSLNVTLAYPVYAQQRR
Assay: SelectScreen biochemical kinase activity assay
Details: PI3K (p110α/p85α)
Experimental: Selectivity profiling of casticin against a selected panel of 468 kinases distributed throughout the kinome was performed by DiscoverRx (http://www.discoverx.com/home) using the KINOMEscan screening platform at a test concentration of 10 μM. […]
OBSERVATION_TYPE: IC50 (nM)

INSERT INTO assay_data (record_smiles, quantitative_readout) VALUES
  ('COc1ccc(-c2oc3cc(OC)c(OC)c(O)c3c(=O)c2OC)cc1O', 616);

###

Molecular target: PIK3CA E545K/PIK3R1 (p110 alpha E545K/p85 alpha) (Homo sapiens, UniProt P42336, E545K)
Sequence (P42336 whole entry E545K, one chain of several): as the sequence (P42336 whole entry E542K, one chain of several) above, with K542E, E545K counted along it
Assay: SelectScreen biochemical kinase activity assay
OBSERVATION_TYPE: IC50 (µM)

INSERT INTO assay_data (record_smiles, observation_type, quantitative_readout) VALUES
  ('COc1ccc(-c2oc3cc(OC)c(OC)c(O)c3c(=O)c2OC)cc1O', 'IC50', 0.544);

###

Biological target: PIK3CA/PIK3R3 (p110a/p55 gamma) (Homo sapiens, UniProt P42336)
Sequence (P42336 whole entry): as the sequence (P42336 whole entry) above
Assay: SelectScreen biochemical kinase activity assay
pIC50: −log10 of the molar value.
OBSERVATION_TYPE: pIC50

INSERT INTO assay_data (record_smiles, quantitative_readout) VALUES
  ('COc1ccc(-c2oc3cc(OC)c(OC)c(O)c3c(=O)c2OC)cc1O', 6.24);
